system: CCRF-CEM leukemia; test: NCI-60 one-dose screen, 48 h (100 = growth as untreated, 0 = no growth, -100 = all killed); conditions: 10 µM unless noted
About 83,000 compounds went through this panel and 20% of them were active in at least one assay; those are over-represented in the sample as a whole.
Is growth at least 30%? Then y. If not, n.

# COMPOUND, CATEGORY
measured = [
    ("Cc1ccc(Cl)c(NS(=O)(=O)c2ccc(-c3cnc(C4CC4)o3)cc2)c1", "n"),
    ("O=C(CC(SCc1ccccc1)c1ccccc1)c1ccccc1 (configuration not stated)", "y"),
    ("COC(=O)CCC1=C(C)C2=NC1=CC1=NC(=CC3=NC(=Cc4[nH]c(/c(=C(/C)O)c4C)=C2)C(C(C)=O)=C3C)C(C)=C1CCC(=O)OC", "y"),
    ("COc1ccc(OC)c(-c2c(C#N)c(-c3ccc(Cl)cc3)nc3c2c(-c2ccccc2)nn3-c2ccccc2)c1", "y"),
    ("CC(C)(C)OC(=O)Nc1ccc2c(c1)C(NC(=O)Nc1cccc(C#N)c1)CC(C)(C)O2 (configuration not stated)", "y"),
    ("Cc1nc2ccccc2c(/C=C/c2ccc(Cl)cc2)c1C(=O)/C=C/c1ccc(F)cc1", "n"),
    ("COc1cc(C2NC(=O)c3ccccc3N2)ccc1OCCCCCOc1c(OC)cc(C2=NOC(c3cc(OC)c(OC)c(OC)c3)C2)cc1OC (configuration not stated)", "y"),
    ("O=C1N=c2cc3c(cc2=C/C1=C/c1sc(=S)n(CCc2ccc(O)cc2)c1O)OCCO3", "y"),
    ("NCCCNc1nc2ccccc2c2c(=O)c3cccc(Cl)c3sc12", "n"),
    ("COc1ccc(/C=N\\NC(=O)c2cc(-c3ccc(Br)cc3)n(-c3ccc(S(N)(=O)=O)cc3)n2)cc1", "y"),
    ("COC(=O)[C@]12CC[C@@H](C)[C@H](C)[C@@H]1C1=CC[C@@H]3[C@@]4(C)C(C=O)=C[C@@](C)(COC(C)=O)C4=CC[C@@]3(C)[C@]1(C)CC2", "n"),
    ("O=C1/C(=C2/C=Nc3ccccc32)N(O)c2ccccc21", "y"),
    ("O=C(Nc1ccccc1)Nc1cccc(Oc2nnc(Cl)c3ccccc23)c1", "y"),
    ("Cc1cc(Cl)nc(NCc2cc(Nc3ccnc4cc(Cl)ccc34)ccc2F)n1", "n"),
    ("Cc1cc(/C=C\\c2ccc3ccccc3[n+]2C)c(O)c2ncccc12", "n"),
    ("COC(=O)[C@]12CC[C@@H](C)[C@H](C)[C@@H]1C1=CC[C@@H]3[C@@]4(C)C(C=O)=C[C@@](C)(COC(C)=O)[C@@H]4[C@H](O)C[C@@]3(C)[C@]1(C)CC2", "n"),
]

###

test system: NCI-H460 lung; experiment: NCI-60 one-dose screen, 48 h; details: 10 µM unless noted
This is part of a sample that, as a whole, favours compounds with a hit. Of some 83,000 tested, about 20% had one in any assay. Active and inactive are the calls of the source. The calls were made as follows: active = growth percent below 10; inactive = the rest.
Outcome codes: active, inactive

# COMPOUND, CATEGORY
records = [
    ("O=C(Nc1cccc(Oc2nnc(Cl)c3ccccc23)c1)Nc1ccc(Cl)c(C(F)(F)F)c1", "active"),
    ("CC(C)C(=O)Nc1n[nH]c2cc(-c3cccc(NS(=O)(=O)C4CC4)c3)ccc12", "inactive"),
    ("COc1ccc(OC)c2c1[nH]c(=O)c1c3ncccc3cn21", "active"),
    ("Cn1c(I)c(C#C[Si](C)(C)C)c(=O)n(C(=O)c2ccccc2)c1=O", "inactive"),
    ("CC1O[C@@H](OC2[C@H](OC(=O)/C=C/c3ccc(O)c(O)c3)C(COC3O[C@H](C)C(O)C(O)[C@@H]3O)O[C@@H](OCCc3ccc(O)c(O)c3)[C@H]2O)[C@@H](O)C(O)[C@H]1O (stereo partly drawn)", "inactive"),
    ("CN(C)CCNc1nc2ccccc2c2c1c1c(n2Cc2ccccc2)-c2ccccc2C1=O", "active"),
    ("COC1=CC(=O)C[C@@H](C)[C@]12Oc1c(Cl)c(OC)cc(OC)c1C2=O", "inactive"),
    ("O=C(NCCCNc1cc(-c2cn(-c3ccccc3)nc2-c2cccc(O)c2)ccn1)c1ccccc1", "inactive"),
    ("Cc1cc(N2CCCC2)nc(NCc2cc(Nc3ccnc4cc(Cl)ccc34)ccc2F)n1", "active"),
    ("N/C(=N\\c1nc2ccccc2s1)NC(=O)Nc1cccc(Cl)c1", "inactive"),
    ("CCCCN(CCCC)CC(C)(C)C(O)c1ccc(OC)c2ccccc12 (stereo not drawn)", "inactive"),
    ("COc1ccc(-c2nc(SCCC(C)C)nc(N/N=C\\c3ccccc3O)c2C#N)cc1", "inactive"),
    ("NS(=O)(=O)c1ccc(-n2nc(C(=O)N/N=C\\c3ccc(F)cc3)cc2-c2ccc(Cl)cc2)cc1", "inactive"),
    ("CC(C)(C)n1cc(-c2ccnc(NCCCNS(=O)(=O)c3ccccc3)c2)c(-c2ccccc2)n1", "inactive"),
    ("CC1(C)CC(=O)CC2(C1)N=C(N)Nc1nc3ccccc3n12 (stereo not drawn)", "inactive"),
    ("Cc1cc[c-]cc1.Fc1c[c-]c(-c2ccccn2)c(F)c1.[Pt+2].c1ccc(P(C[PH+](c2ccccc2)c2ccccc2)c2ccccc2)cc1", "active"),
    ("CCOC(CN=Cc1cc(C)c2[nH]c3ccccc3c2c1C)OCC", "inactive"),
    ("O=C(Nc1ccccc1-c1nc2ccccc2c(=O)[nH]1)c1cc2ccccc2[nH]1", "inactive"),
    ("CC(C)Sc1nc(NNC(N)=S)c(C#N)c(-c2ccc(F)cc2)n1", "inactive"),
    ("N=C(N)c1ccc(-c2ccc(-c3cncc4ccccc34)s2)s1", "active"),
    ("CC(=O)c1nc(Nc2ccc(C)cc2)sc1C", "inactive"),
    ("Clc1cccc(Cl)c1C(Nc1nc2ccccc2s1)Nc1nc2ccccc2s1", "inactive"),
    ("CSc1n(Cc2ccc3ccccc3c2)c(C)c[n+]1Cc1ccc2ccccc2c1", "active"),
    ("CCN1C(=O)N(CC)C2Nn3c(s/c(=C\\c4cccc([N+](=O)[O-])c4)c3=O)=NC21 (stereo not drawn)", "inactive"),
    ("C[C@H]1[C@H]2[C@H]3CC[C@@H]4[C@@]5(C)C/C(=C/c6ccco6)C(=O)C(C)(C)[C@@H]5CC[C@@]4(C)[C@]3(C)CC[C@]23CO[C@]1(C)[C@@H](C(=O)/C=C\\c1ccco1)C3", "inactive"),
    ("C[n+]1cc2cc(C(N)=O)[nH]c3c(=N)c(Cl)c(N)c1c23", "inactive"),
    ("N#Cc1c(-c2cccc(Cl)c2)cc(-c2cccc(F)c2)[nH]c1=O", "inactive"),
    ("Cn1cc2c(c1)-c1nc(Nc3ccccc3)ncc1CC2", "inactive"),
    ("CCN(CC)CCCC(C)Nc1c2ccc(Cl)cc2nc2ccc(O)cc12 (stereo not drawn)", "inactive"),
    ("O=C1C=C[C@]2(C[C@@H](c3cccc(C(F)(F)F)c3)O[C@@H](c3cccc(C(F)(F)F)c3)O2)O1", "active"),
    ("CCN(CC)c1ccc2nc3c4ccccc4c(=NC(=O)c4ccccc4-c4c5ccc(N(CC)CC)cc5[o+]c5cc(N(CC)CC)ccc45)cc-3oc2c1", "active"),
    ("Cn1cc(-c2csc(-c3ccccc3)n2)c2cccnc21", "active"),
    ("CC/C=C1/C(=O)C=C[C@@H]1C/C=C\\CCCC(=O)O", "inactive"),
    ("C=C1C(=O)O[C@H]2[C@H]1CC/C(COC(=O)C(=O)c1c[nH]c3ccccc13)=C\\CC[C@@]1(C)O[C@@H]21", "active"),
    ("O=C(COc1ccc(/C=C2\\Oc3ccccc3C2=O)cc1)c1ccc(Cl)cc1", "inactive"),
    ("COc1ccc(-c2nc(SC(C)C)nc(NNC(N)=S)c2C#N)cc1", "inactive"),
    ("COc1ccc2c(c1)O/C(=C/c1ccc(OCC(=O)c3ccccc3)cc1)C2=O", "inactive"),
    ("Cc1ccc(C(=O)COc2cccc(/C=C3\\Oc4ccccc4C3=O)c2)cc1", "inactive"),
]

###

Tested on: 786-0 renal
Test: NCI-60 one-dose screen, 48 h (100 = growth as untreated, 0 = no growth, -100 = all killed)
Conditions: 10 µM unless noted
Procedure: Cells are grown in 96 well plates and exposed to the test compound for 48 hours. Compounds are tested at a single concentration, which is 10^-5 M for most compounds. The reported endpoint is percent growth (GI% or GIPRCNT), where numbers from 0 - 100% represent growth inhibition, and numbers from -100% - 0 represent cell death. For example, a value of 40 represents 60% growth inhibition. A value of 0 means no net growth occurred over the course of the experiment. […]
The panel holds about 83,000 compounds, 20% with a hit somewhere; the sample as a whole holds those more often.
growth under 20% gets Satisfied, anything at or over 20% gets Not satisfied.

# COMPOUND, CATEGORY
data = [
    ("O=C(c1ccc(Nc2nccc(NCCCCNc3ccnc4cc(Cl)ccc34)n2)cc1)N1CCCCC1", "Satisfied"),
    ("CC1OC(O[C@H]2/C=C/C=C/C=C/C=C/C=C/C=C/C=C/[C@H](C)[C@@H](O)[C@@H](C)[C@H](C)OC(=O)CC(O)CC(O)CCC(O)C(O)CC(O)C[C@]3(O)C[C@H](O)C(C(=O)O)C(C2)O3)C(O)[C@H](N)C1O (some centres undefined)", "Satisfied"),
    ("Cc1ccc(NCCN(C)C)c2c(=O)c3ccccc3sc12", "Not satisfied"),
    ("C=CCOC1=CC(=O)c2ccccc2C1=O", "Not satisfied"),
    ("Clc1cc(Cl)cc(Nc2ccc3cc(OCCCN4CCOCC4)ccc3n2)c1", "Satisfied"),
    ("CN(C)c1ccc(-c2ccc3[nH]c(=O)nc(-c4ccccc4)c3c2)cn1", "Not satisfied"),
    ("COc1ccc(/C=C/c2c(C(=O)/C=C/c3cccs3)c(C)nc3ccccc23)cc1", "Not satisfied"),
    ("CCC1(C2CCCC2)NC(=O)NC1=O (centres undefined)", "Not satisfied"),
    ("COc1ccc(NC(=O)CSc2nc(C)c(C(C)=O)n2-c2ccc([N+](=O)[O-])cc2)cc1", "Not satisfied"),
    ("COc1ccc2c(c1)O/C(=C\\c1cccc(OCC(=O)Nc3nc(C)c(C)s3)c1)C2=O", "Satisfied"),
    ("CSc1n(Cc2ccc3ccccc3c2)c(C)c[n+]1Cc1ccc2ccccc2c1", "Satisfied"),
    ("CC/C=C\\C[C@H](O)C/C=C1/C(=O)C=C[C@@H]1C/C=C\\CCCCO", "Satisfied"),
    ("Cc1ccc(CCC(=O)Nc2ncc(Cc3cc(Cl)ccc3Cl)s2)o1", "Not satisfied"),
    ("Cc1ccccc1NC(=O)N/C(N)=N/c1nc(-c2cccc([N+](=O)[O-])c2)cs1", "Not satisfied"),
    ("CCc1c2c(nc3ccc(OC(=O)OCc4ccc(B5OC(C)(C)C(C)(C)O5)cc4)cc13)-c1cc3c(c(=O)n1C2)COC(=O)[C@]3(O)CC", "Satisfied"),
    ("COc1cc(N2C(=O)c3nccnc3C2=O)cc(OC)c1OC", "Not satisfied"),
    ("CCN(CC)c1ccc(C(=O)c2ccc(N(CC)CC)cc2)cc1", "Satisfied"),
    ("C[C@H]1[C@H]2[C@H]3CC[C@@H]4[C@@]5(C)C/C(=C/c6cccnc6)C(=O)C(C)(C)[C@@H]5CC[C@@]4(C)[C@]3(C)CC[C@]23CO[C@]1(C)[C@@H](C(=O)/C=C\\c1cccnc1)C3", "Satisfied"),
]
